Ref: patent US20020028807A1

study-target: HIV-1 RT V106A (Human immunodeficiency virus type 1 group M subtype B, UniProt P03366, V705A)
Construct: an HIV RT clone pKRT2 containing only the RT p66 gene regulated by the lac operon/trc promoter
experimental-protocol: Reverse transcriptase (RT) assay, V106A mutant
Below is a list of entries, each paired with its recorded pIC50 value.
Please treat pIC50 as minus the base-10 logarithm of the molar concentration.

Some molecules with recorded pIC50:
substance-smiles: CCN1c2ncc(CCOc3cc[n+]([O-])c4ccccc34)cc2C(=O)Nc2c(C)cc(F)nc21
pIC50: 7.01
--
substance-smiles: CCN1C(=O)c2cc(CCOc3ccnc4ccccc34)cnc2N(CC)c2ncccc21
pIC50: 5.76
--
substance-smiles: CCN1c2ncc(CCOc3ccnc4ccccc34)cc2C(=O)Nc2c(C)cc(Cl)nc21
pIC50: 6.88
--
substance-smiles: CCN1c2ncc(CCOc3cccc4c3ccc[n+]4[O-])cc2C(=O)N(C)c2ccc(F)nc21
pIC50: 6.13
--
substance-smiles: CCN1c2ncc(CCOc3ccnc4ccccc34)cc2C(=O)Nc2c(C)ccnc21
pIC50: 6.72

Task: Indicate its recorded pIC50; the molecule in question is "CCN1C(=O)c2cc(CCOc3cc[n+]([O-])c4ccccc34)cnc2N(CC)c2ncccc21"
Result: 5.64

Task: Fill in reported pIC50 for this entry: "CCN1c2ncc(CCOc3cc[n+]([O-])c4ccccc34)cc2C(=O)Nc2c(C)ccnc21"
Result: 6.92

###

study-target: HIV-1 RT V106A (Human immunodeficiency virus type 1 group M subtype B, UniProt P03366, V705A)
Construct: an HIV RT clone pKRT2 containing only the RT p66 gene regulated by the lac operon/trc promoter
experimental-protocol: Reverse transcriptase (RT) assay, V106A mutant
In this section we review reported IC50 values for a set of compounds.
Your answer is read as nM, so omit the unit and give the number.

Answered cases to consult:
substance-smiles: CCN1c2ncc(CCOc3cccc4c3ccc[n+]4[O-])cc2C(=O)Nc2c(C)cc(F)nc21
IC50 (nM): 105

substance-smiles: CCN1c2ncc(CCOc3cccc4ncccc34)cc2C(=O)Nc2c(C)cc(Cl)nc21
IC50 (nM): 84

substance-smiles: CCN1c2ncc(CCOc3ccnc4ccccc34)cc2C(=O)N(C)c2ccc(Cl)nc21
IC50 (nM): 148

Task: Output IC50 of "Cc1ccnc2c1NC(=O)c1cc(CCOc3cc[n+]([O-])c4ccccc34)cnc1N2C1CC1"
Result: 206

Task: Give recorded IC50. "CCN1c2ncc(CCOc3ccnc4ccccc34)cc2C(=O)Nc2c(C)cc(F)nc21"
Result: 74

Task: Specify IC50 for "CCN1c2ncc(CCOc3ccnc4ccccc34)cc2C(=O)N(C)c2cccnc21" and stop.
Result: 344

Task: # return recorded IC50 for input "CCN1c2nc(Cl)ccc2NC(=O)c2cc(CCOc3cc[n+]([O-])c4ccccc34)cnc21"
Result: 2490

Task: Read off the recorded IC50 for "CN1C(=O)c2cc(CCOc3cc[n+]([O-])c4ccccc34)cnc2N(C2CC2)c2nc(Cl)ccc21"
Result: 1370

###

Listed here: items and their measured pIC50.
study-target: HIV-1 RT Y181C (Human immunodeficiency virus type 1 group M subtype B, UniProt P03366, Y780C)
Construct: an HIV RT clone pKRT2 containing only the RT p66 gene regulated by the lac operon/trc promoter
experimental-protocol: Reverse transcriptase (RT) assay, Y181C mutant
# pIC50: negative log10 of molar concentration; output just the value

compound: CCN1C(=O)c2cc(CCOc3ccnc4ccccc34)cnc2N(CC)c2ncccc21 [compound 26]
pIC50: 7.29

Here is the next item to consider.
Task: # return recorded pIC50 for input CN1C(=O)c2cc(CCOc3cc[n+]([O-])c4ccccc34)cnc2N(C2CC2)c2nc(Cl)ccc21 [compound 10]
Result: 6.69

###

// endpoint IC50 / system UniProt P03366
Express the result in nM but write the number alone.

Illustrative cases are given below, each with its answer.
substance-smiles: CCN1c2ncc(CCOc3cccc4ncccc34)cc2C(=O)Nc2c(C)cc(Cl)nc21
study-target: UniProt P03366
IC50, nM: 8

substance-smiles: CCN1c2nc(Cl)ccc2NC(=O)c2cc(CCOc3cc[n+]([O-])c4ccccc34)cnc21
study-target: UniProt P03366
IC50, nM: 45

Task: State its IC50 for this compound: "CCN1c2ncc(CCOc3cc[n+]([O-])c4ccccc34)cc2C(=O)N(C)c2cccnc21"
Result: 17

Task: Entry "CCN1c2ncc(CCOc3cc[n+]([O-])c4ccccc34)cc2C(=O)Nc2c(C)cc(Cl)nc21" needs its IC50 filled in; supply it.
Result: 15

Task: Tell me IC50 reported for "CCN1c2ncc(CCOc3ccnc4ccccc34)cc2C(=O)Nc2c(C)cc(Cl)nc21"
Result: 10.5

Task: Assign IC50 to the following record: "CCN1c2ncc(CCOc3cccc4c3ccc[n+]4[O-])cc2C(=O)N(C)c2ccc(F)nc21"
Result: 11

Task: # return recorded IC50 for entry "Cc1ccnc2c1NC(=O)c1cc(CCOc3cc[n+]([O-])c4ccccc34)cnc1N2C1CC1"
Result: 61

Task: Give the reported IC50 for this compound. "CCN1C(=O)c2cc(CCOc3ccnc4ccccc34)cnc2N(CC)c2ncccc21"
Result: 8.9

###

study-target: HIV-1 RT K103N/L100I (Human immunodeficiency virus type 1 group M subtype B, UniProt P03366, K702N/L699I)
Construct: an HIV RT clone pKRT2 containing only the RT p66 gene regulated by the lac operon/trc promoter
experimental-protocol: Reverse transcriptase (RT) assay, K103N/L100I mutant
test-readout: IC50 (nM)
Return type: number; implicit unit nM.

substance-smiles: CCN1c2ncc(CCOc3ccnc4ccccc34)cc2C(=O)Nc2c(C)ccnc21
test-readout: IC50
numeric-value: 135

Task: Query IC50 for "CCN1c2ncc(CCOc3cc[n+]([O-])c4ccccc34)cc2C(=O)Nc2c(C)cc(F)nc21"
Result: 88

Task: Input "CN1C(=O)c2cc(CCOc3cc[n+]([O-])c4ccccc34)cnc2N(C2CC2)c2nc(Cl)ccc21" , output reported IC50.
Result: 229

Task: Name the recorded IC50 of the item "CCN1c2ncc(CCOc3ccnc4ccccc34)cc2C(=O)N(C)c2ccc(Cl)nc21" in your answer.
Result: 46

Task: Identify the reported IC50 for the following entry. "CCN1c2ncc(CCOc3ccnc4ccccc34)cc2C(=O)N(C)c2cccnc21"
Result: 169

Task: Report measured IC50; entry is "CCN1c2ncc(CCOc3cc[n+]([O-])c4ccccc34)cc2C(=O)N(C)c2cccnc21"
Result: 168

Task: Quickly give me recorded IC50 for "CCN1c2ncc(CCOc3cc[n+]([O-])c4ccccc34)cc2C(=O)Nc2c(C)ccnc21"
Result: 124

###

study-target: HIV-1 RT K103N/Y181C (Human immunodeficiency virus type 1 group M subtype B, UniProt P03366, K702N/Y780C)
Construct: an HIV RT clone pKRT2 containing only the RT p66 gene regulated by the lac operon/trc promoter
experimental-protocol: Reverse transcriptase (RT) assay, K103N/Y181C mutant
Attribute: IC50
Response body: numeric value in nM, unit text excluded.

substance-smiles: CCN1c2ncc(CCOc3ccnc4ccccc34)cc2C(=O)Nc2c(C)cc(Cl)nc21
test-readout: IC50
numeric-value: 52
//
substance-smiles: CN1C(=O)c2cc(CCOc3cc[n+]([O-])c4ccccc34)cnc2N(C2CC2)c2nc(Cl)ccc21
test-readout: IC50
numeric-value: 710
//
substance-smiles: CCN1C(=O)c2cc(CCOc3cc[n+]([O-])c4ccccc34)cnc2N(CC)c2ncccc21
test-readout: IC50
numeric-value: 299

Task: Respond only with IC50 recorded for "CCN1c2ncc(CCOc3cc[n+]([O-])c4ccccc34)cc2C(=O)N(C)c2ccc(C)nc21"
Result: 141

Task: Specify reported IC50 for the molecule shown: "CCN1c2ncc(CCOc3cc[n+]([O-])c4ccccc34)cc2C(=O)N(C)c2ccc(F)nc21"
Result: 55

Task: For "Cc1ccnc2c1NC(=O)c1cc(CCOc3ccnc4ccccc34)cnc1N2C1CC1" , write its IC50.
Result: 612

Task: Give the measured IC50 for "Cc1cc(F)nc2c1NC(=O)c1cc(CCOc3ccnc4ccccc34)cnc1N2C1CC1"
Result: 536

Task: Return IC50 for the following molecule: "CCN1c2ncc(CCOc3ccnc4ccccc34)cc2C(=O)N(C)c2ccc(Cl)nc21"
Result: 24.5

###

study-target: HIV-1 RT K103N (Human immunodeficiency virus type 1 group M subtype B, UniProt P03366, K702N)
Construct: an HIV RT clone pKRT2 containing only the RT p66 gene regulated by the lac operon/trc promoter; made in house; host or cells: E. coli JM109, vector pKK233-2
experimental-protocol: Reverse transcriptase (RT) assay, K103N mutant
Type: biochemical
test-readout: pIC50
Bear in mind: pIC50 is minus log10 of a mol/L concentration; give just that figure.

Examples with answers:
compound: CCN1C(=O)c2cc(CCOc3ccnc4ccccc34)cnc2N(CC)c2ncccc21 [compound 26]
numeric-value: 7.40
//
compound: CCN1c2ncc(CCOc3cccc4c3ccc[n+]4[O-])cc2C(=O)N(C)c2ccc(F)nc21 [compound 18]
numeric-value: 7.43
//
compound: Cc1ccnc2c1NC(=O)c1cc(CCOc3ccnc4ccccc34)cnc1N2C1CC1 [compound 3]
numeric-value: 7.35
//
compound: CCN1c2ncc(CCOc3cc[n+]([O-])c4ccccc34)cc2C(=O)N(C)c2ccc(F)nc21 [compound 11]
numeric-value: 7.74

Task: Given CCN1c2ncc(CCOc3cccc4ncccc34)cc2C(=O)Nc2c(C)cc(Cl)nc21 [compound 25] , respond with its pIC50.
Result: 7.72

Task: Please report pIC50 for the following compound: CCN1c2ncc(CCOc3ccnc4ccccc34)cc2C(=O)Nc2c(C)cc(F)nc21 [compound 7]
Result: 7.59

Task: Query pIC50 for CCN1c2ncc(CCOc3cc[n+]([O-])c4ccccc34)cc2C(=O)N(C)c2ccc(Cl)nc21 [compound 17]
Result: 7.60

Task: Note down pIC50 recorded for CCN1c2ncc(CCOc3ccnc4ccccc34)cc2C(=O)N(C)c2ccc(Cl)nc21 [compound 2]
Result: 7.55

Task: Look up and report measured pIC50 for this entry: CCN1c2ncc(CCOc3ccnc4ccccc34)cc2C(=O)Nc2c(C)ccnc21 [compound 8]
Result: 7.43
